# Test system: HOP-92
# assay-comment: NCI tumour cell line growth inhibition, 48 h
Active and inactive are the calls of the source. Rule as the data show it: active = GI50 up to about 1.1 µM and inactive = higher.
quantity: GI50

>>> print(df.to_string())
                                   molecule  quantity               result
0  CCOc1cn(C2OC(CO)C(O)C2O)c(=O)[nH]c1=O (centres undefined)      GI50  > 100 µM (inactive)

GET /value?item= COc1ccc(C2(CN(C)C)COc3cc(OC)c(OC)cc3C2=O)cc1OC (centres undefined) &field=GI50 returns 79.3 µM (inactive)

// `O=c1[nH]c(=S)[nH]cc1CN1CCOCC1` : GI50 value = > 100 µM (inactive)

Entry `O=C1C/C(=C/c2ccc(/C=C3/CC(=O)N(c4cccc(Br)c4)C3=O)cc2)C(=O)N1c1cccc(Br)c1` , GI50 reported as 50.2 µM (inactive)

Sample `CC(=O)NNc1nc(C)c(C(=O)/C=C/C=C/c2ccccc2)s1` ; GI50 observed: > 100 µM (inactive)
